assayed.target: T1, KGF (hKGF) (Homo sapiens, UniProt P21781 P21781:32-194)
T1 sequence: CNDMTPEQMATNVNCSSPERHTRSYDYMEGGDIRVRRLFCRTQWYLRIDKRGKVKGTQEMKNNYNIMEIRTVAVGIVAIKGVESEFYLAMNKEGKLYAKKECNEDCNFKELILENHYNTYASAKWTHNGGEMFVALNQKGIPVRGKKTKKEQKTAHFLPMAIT
assay: competition; PC-3 assay
details: tags: Upstate Biotechnology
What IC50 was measured for each of the following?

Ask: Answer with the recorded IC50 for the binder listed here: 10F (K10F) (ssRNA, 2'-F pyrimidines) RNA: GGGAGGACGAUGCGGGACCAGAUGGCGGAUUUUUCAGCAAUCCUCCCCCCGCUGCCCAGACGACUCGCCCGA
Reply: 30 nM

We now examine a further binder.
Ask: Answer with the recorded IC50 for the binder listed here: 4N (K4N) (ssRNA, 2'-NH2 pyrimidines) RNA: GGGAGGACGAUGCGGGUGGUGAAGAGGUACCGGAAUUGCUAAAGAUACCACGGCCCAGACGACUCGCCCGA
Reply: 70 nM

Sourced from patent US6207816
